Data origin: PubChem BioAssay (NCI)

- Tested on: SK-MEL-2 melanoma
Select the correct class. Options are active, inactive and nothing else.

Look over these answered cases.
O=C1OCc2c1cc(F)cc2[N+](=O)[O-] ... inactive
Cc1ccc(S(=O)(=O)/N=c2\ssc(Nc3ccccc3)c2Cl)cc1 ... inactive
COc1cc(/C=C/C(=O)c2ccc(Nc3ncnc4ccccc34)cc2)cc(OC)c1 ... inactive
CN[C@]12CC3(C=CC(=O)C=C3)O[C@@]1(Cc1ccc(OC)cc1)N(C)C(=O)N2 ... inactive
COC(=O)C(C)NP(=O)(OCc1ccc(Cn2cnc3c(=O)[nH]c(N)nc32)cc1)Oc1ccccc1 (stereo not drawn) ... inactive
Cc1c2c(nn1C(=O)c1nn(-c3ccc(Cl)cc3)cc1O)-c1ccccc1CC2 ... inactive

I'd appreciate the recorded outcome for COc1cc(/C=C2\CN(C)C/C(=C\c3cc(OC)c(OC)c(OC)c3)C2=O)cc(OC)c1OC from this test.
active

I'd appreciate the recorded outcome for NC1=C(Cl)C(=O)c2ccc(S(N)(=O)=O)cc2C1=O from this test.
active
